Just for reference, ChEMBL document CHEMBL5131396 is where these values come from.

SYSTEM: Dual specificity tyrosine-phosphorylation-regulated kinase 1A (Homo sapiens, UniProt Q13627)
TEST PROTOCOL: Inhibition of FLAG-tagged full-length human recombinant DYRK1A (127 to 485 residues) expressed in Escherichia coli assessed as reduction in autophosphorylation at Ser97 residue by Western blot analysis
RECORDED ENDPOINT: IC50

>>> print(df.to_string())
                                   compound  recorded_endpoint  test_result
0  COc1ccc(/C=C2\SC(=S)NC2=O)cc1/C=C/[Si](C)(C)C               IC50      > 32 µM
1  COc1ccc(/C=C2\SC(=S)NC2=O)cc1/C=C/C(C)(C)C               IC50      > 32 µM
2  COc1ccc(/C=C2\SC(=S)NC2=O)cc1/C=C/C1CCCCC1               IC50      > 32 µM
3  COc1ccc(/C=C2\SC(=S)NC2=O)cc1C#C[Si](C)(c1ccccc1)c1ccccc1               IC50      0.53 µM
